- Test system: IGROV1 ovarian
- assay-method-text: NCI-60 one-dose screen, 48 h (100 = growth as untreated, 0 = no growth, -100 = all killed)
- test-parameters: 10 µM unless noted
Compounds without any hit were thinned out: in the full panel of roughly 83,000, 20% have a hit.
Just a reminder that ties go to 0: only growth strictly below 70% counts as 1.

Find out if reported growth for `C=C(C)[C@@H]1CC[C@]2(C(N)=O)CC[C@]3(C)[C@H](CC[C@@H]4[C@@]5(C)CCCNC(C)(C)[C@@H]5CC[C@]43C)[C@@H]12` is less than 70%
0

Find out if reported growth for COc1ccc2c(c1)C1(C(=O)N2)C(C#N)=C(c2ccccc2)Nc2c1c(-c1ccccc1)nn2-c1ccccc1 (configuration not stated) is less than 70%
1

Find out if reported growth for `O=C(O)CCNC1CCCCC1` is less than 70%
0

Find out if reported growth for `CC1CCN(CCCCCOc2ccc3oc4cc(Cl)ccc4c(=O)c3c2)CC1` is less than 70%
1

Find out if reported growth for `COc1cc(/C=C/C(=O)c2ccc(NC(=O)CSc3nnc(-c4cc(OC)c(OC)c(OC)c4)n3-c3ccccc3)cc2)cc(OC)c1OC` is less than 70%
1

Find out if reported growth for `COc1ccc(-c2cc(-c3nnc(SCC(=O)Nc4ccc(/C(C)=N\O)cc4)o3)c3ccccc3n2)cc1` is less than 70%
0

Find out if reported growth for `COc1cc(C(=O)Nc2cc(O)c(C/C=C(\C)CCC=C(C)C)c(O)c2)cc2c1O[C@]1(C)CC[C@@H](O)C(C)(C)[C@H]1C2` is less than 70%
1

Find out if reported growth for `N#CC(C#N)=C1NC(c2ccccc2)=C(c2ccccc2)C(c2ccccc2Cl)=C1C#N` is less than 70%
0

Find out if reported growth for `COc1ccc(NC(=O)c2ccc(Nc3ncnc4[nH]c(C)c(C)c34)cc2)cc1` is less than 70%
0

Find out if reported growth for `CNS(=O)(=O)c1cccc(-c2ccc3c4c(n(C)c(=O)c3c2)-c2ccccc2C4=O)c1` is less than 70%
1

Find out if reported growth for `CC(C)(C)c1ccc(O)c(Cc2cc(C(C)(C)C)ccc2O)c1` is less than 70%
0

Find out if reported growth for `COc1ccc(Sc2[nH]c(C(C)=O)c3ccccc23)cc1` is less than 70%
0

Find out if reported growth for `COc1ccc2oc(=O)cc(-c3c(C#N)c(N)n4nc(N)c(C#N)c4c3C#N)c2c1` is less than 70%
0

Find out if reported growth for O=C1CCC23OC(c4ccccc4N12)C(O)C(O)C3O (configuration not stated) is less than 70%
0

Find out if reported growth for `CC[C@H](Nc1ncnc2nc[nH]c12)c1nc2cccc(CC(=O)c3ccc(C(=O)NO)cc3)c2c(=O)n1-c1ccccc1` is less than 70%
0

Find out if reported growth for `O=C(O)c1ccc(-n2cc(/C=N/Nc3ccc(Cl)cc3Cl)c(-c3ccccc3)n2)cc1` is less than 70%
0

Find out if reported growth for `CSc1nc(-c2cccs2)c2c(N)[nH]nc2n1` is less than 70%
0

Find out if reported growth for `COC(=O)/C=C/c1cc(OC)c2c(c1)[C@@H](C(=O)OC)[C@H](c1ccc(OC)c(OC)c1)O2` is less than 70%
1

Find out if reported growth for `CCOC(=O)c1c(C)nc2c(c1N)/C(=C/c1cccs1)C(=O)N2c1ccc(OC)cc1` is less than 70%
1

Find out if reported growth for `CCOCCc1c(O)nc(SC)[nH]c1=O` is less than 70%
0

Find out if reported growth for `N#Cc1ccc(Oc2ccc3ccc(=O)oc3c2)cc1` is less than 70%
0

Find out if reported growth for `O=C(Nc1cc(=O)[nH]c(=O)[nH]1)C(Cl)Cl` is less than 70%
0

Find out if reported growth for `O=C(N/N=C/C[C@@H]1[C@@H](/C=C/[C@@H](O)COc2cccc(Cl)c2)[C@H](O)C[C@@H]1O)c1ccncc1` is less than 70%
0

Find out if reported growth for `O=C(/C(=C/c1ccc([N+](=O)[O-])cc1)SCc1ccc(F)cc1)c1ccc(Cl)cc1` is less than 70%
1

Find out if reported growth for `O=C(Nc1nc(-c2ccccc2)cs1)c1cc(-c2ccc(Br)cc2)nc2ccccc12` is less than 70%
1

Find out if reported growth for `C(=C\c1cn(-c2ccccc2)nc1-c1ccccc1)/c1nnc(-c2c[nH]c3ccccc23)o1` is less than 70%
1

Find out if reported growth for `COc1ccc(C(=O)c2cc(OC)c(C)c(OC)c2)cc1OC(=O)CCl` is less than 70%
1

Find out if reported growth for `Cc1ccc(-c2nc(C#N)c(S(=O)(=O)N(C)CCO)o2)cc1` is less than 70%
1

Find out if reported growth for `COc1ccccc1-c1ccc2nc(NC(=O)Nc3cc(C(F)(F)F)cc(C(F)(F)F)c3)sc2c1` is less than 70%
1

Find out if reported growth for `Cc1ccc(C2=N[C@H]3CCC[C@@H]3N(c3ccccc3)C(C(Cl)Cl)=N2)cc1` is less than 70%
0

Find out if reported growth for `O=C(O)c1cn(C2CC2)c2cc(N3CCN(C(=O)CSc4nnc(-c5ccc(Cl)cc5)n4-c4ccccc4)CC3)c(F)cc2c1=O` is less than 70%
0

###

- System: SF-539 CNS
- assay-method-text: NCI-60 one-dose screen, 48 h (100 = growth as untreated, 0 = no growth, -100 = all killed)
- test-parameters: 10 µM unless noted
The panel holds about 83,000 compounds, 20% with a hit somewhere; the sample as a whole holds those more often.
result-type: growth (%)
Report as a plain number; the unit % is understood.

Request body: readout growth, system SF-539 CNS, query `COc1ccc2c(c1)/C(=C1\S/C(=N/c3nnc(C)s3)NC1=O)C(=O)N2Cc1ccc(Cl)cc1` . Return the value.
48.7

Request body: readout growth, system SF-539 CNS, query `COc1cc(-c2csc(NC(=O)Nc3ccc(Cl)cc3)n2)cc(OC)c1OC` . Return the value.
48.8

Request body: readout growth, system SF-539 CNS, query N#CC1(C#N)C2=C(CCCC2)NC(c2c(F)cccc2Cl)C1(C#N)C#N (stereo not drawn) . Return the value.
50.1

###

- Test system: SK-MEL-5 melanoma
- assay-method-text: NCI-60 one-dose screen, 48 h
- test-parameters: 10 µM unless noted
- Experimental: Growth inhibition of the SK-MEL-5 human tumor cell line is measured as a screen for anti-cancer activity. Cells are grown in 96 well plates and exposed to the test compound for 48 hours. Compounds are tested at a single concentration, which is 10^-5 M for most compounds. The reported endpoint is percent growth (GI% or GIPRCNT), where numbers from 0 - 100% represent growth inhibition, and numbers from -100% - 0 represent cell death. For example, a value of 40 represents 60% growth inhibition. […]
Compounds without any hit were thinned out: in the full panel of roughly 83,000, 20% have a hit. Activity calls are given as the source filed them. How the source made its calls: active means growth percent below 10; inactive means the rest.
Result category, one only: T = active, F = inactive

Would you mind telling me which call this test gave `CC1=C(CCCOC(=O)NCCCl)C2=C(C)C3(CC3)[C@@](C)(O)C(=O)C2=C1` ?
T

Would you mind telling me which call this test gave `CC(C)NS(=O)(=O)c1cccc(-c2ccc3c4c(n(CCCN(C)C)c(=O)c3c2)-c2ccccc2C4=O)c1` ?
F

Would you mind telling me which call this test gave `C=C1C(=O)O[C@H]2[C@H]1CC/C(COC(=O)CCCCCCC(=O)OC/C1=C/CC[C@@]3(C)O[C@H]3[C@H]3OC(=O)C(=C)[C@@H]3CC1)=C\CC[C@@]1(C)O[C@@H]21` ?
F

Would you mind telling me which call this test gave `N#Cc1c(NC(=O)c2cccs2)[n+]([O-])c2cc(C(F)(F)F)ccc2[n+]1[O-]` ?
F

Would you mind telling me which call this test gave `CCCCc1n(Cc2ccc3ccccc3n2)cc[n+]1Cc1ccc2ccccc2c1` ?
T

Would you mind telling me which call this test gave `N#CC(C#N)=C1NC(c2ccccc2)=C(c2ccccc2)C(c2ccccc2Cl)=C1C#N` ?
F

Would you mind telling me which call this test gave `CN(C)CCCn1c2c(c3cc(-c4cccc(S(N)(=O)=O)c4)ccc3c1=O)C(=O)c1ccccc1-2` ?
F

Would you mind telling me which call this test gave `CC(C)C[C@H](C(=O)O)N(C)C(=O)[C@@H]1CCCN1C(=O)[C@H](C)OC(=O)[C@H](CCC(N)=O)NC(=O)[C@@H]1CCC(=O)N1` ?
F

Would you mind telling me which call this test gave `c1ccc(Sc2ncccn2)nc1` ?
F

###

- System: HOP-62 NSCLC
- assay-method-text: NCI-60 one-dose screen, 48 h (100 = growth as untreated, 0 = no growth, -100 = all killed)
- test-parameters: 10 µM unless noted
The panel holds about 83,000 compounds, 20% with a hit somewhere; the sample as a whole holds those more often.
Just a reminder that ties go to n: only growth strictly below 40% counts as y.

Find out if reported growth for `CCc1ccc(OCc2ccccc2C(=O)Nc2ccc3nc(C)cc(N)c3c2)cc1` is less than 40%
y

Find out if reported growth for `O=C(N/N=C/C[C@@H]1[C@@H](/C=C/[C@@H](O)COc2cccc(Cl)c2)[C@H](O)C[C@@H]1O)c1ccncc1` is less than 40%
n

Find out if reported growth for `C#C[C@@]1(O)[C@@H](CO)O[C@@H](n2cnc3c(-c4ccccc4)ncnc32)[C@@H]1O` is less than 40%
n

Find out if reported growth for O=C1CC(c2ccc(O)c(O)c2)Oc2cc(O)c([C@@H]3O[C@H](CO)[C@@H](O)[C@H](O)[C@H]3O)c(O)c21 (stereo partly specified) is less than 40%
n

Find out if reported growth for `O=c1c2ccccc2oc2ccc(OCCCCCN3CCCCCC3)cc12` is less than 40%
n

Find out if reported growth for `Sc1cccc2cccnc12` is less than 40%
y

Find out if reported growth for `C=C1C(=O)O[C@H]2[C@H]1CC/C(COC(=O)n1ccnc1)=C\CC[C@@]1(C)O[C@@H]21` is less than 40%
n

Find out if reported growth for `COc1cccc(NC(=O)Nc2ccc(Oc3ncnc4[nH]c(C)c(C)c34)cc2)c1` is less than 40%
n

Find out if reported growth for `COC(=O)/C=C1\SC(=Nc2ccc(C(F)(F)F)cc2)N(CCc2c[nH]c3ccccc23)C1=O` is less than 40%
y

Find out if reported growth for `C=C(C)[C@@H]1CC[C@]2(C(=O)N=C=S)CC[C@]3(C)[C@H](CC[C@@H]4[C@@]5(C)CCC(=O)C(C)(C)[C@@H]5CC[C@]43C)[C@@H]12` is less than 40%
y
